# test.details: Quantitative High-Throughput drug screen in 47 multiple myeloma cell lines against the NCATS MIPE library collection: AMO1_DSMZ cell viability assay (AID 1918927; also: nearly all actives have a fitted effect of over 30% in size)
# setup.conditions: AMO1 myeloma cells viability, CellTiter-Glo ATP luminescence, 48 h; series mostly up to 45.8 µM
Inconclusive results are not listed. The source made the active and inactive calls. Calls follow the shape of the dose curve; as a rule, active = well fitted cell-killing curve with a large enough effect; inconclusive = small, poorly fitted or top-dose-only effect, or effect the other way; inactive = no such curve, though single readings can be large or run the other way.
Possible outcomes: active, inactive

[
  {
    "molecule": "Nc1ncnc2c1c(-c1cnc3[nH]ccc3c1)nn2C1CCCC1",
    "classification": "active"
  },
  {
    "molecule": "COc1c(OCCCN2CCOCC2)ccc2c3n(c(=NC(=O)c4cnc(N)nc4)nc12)CCN3",
    "classification": "active"
  },
  {
    "molecule": "CC1COC2(CCN(c3nc(=O)c4cc(C(F)(F)F)cc([N+](=O)[O-])c4s3)CC2)O1 (centres undefined)",
    "classification": "inactive"
  },
  {
    "molecule": "COc1ccc2c(c1)CC[C@@H](CN(C)CC(=O)O)[C@H]2c1ccccc1",
    "classification": "active"
  },
  {
    "molecule": "C#Cc1cccc(Nc2ncnc3cc(OC)c(OCCCCCCC(=O)NO)cc23)c1",
    "classification": "active"
  },
  {
    "molecule": "COC(=O)Nc1nc2ccc(C(=O)c3ccc(F)cc3)cc2[nH]1",
    "classification": "active"
  },
  {
    "molecule": "CC1(C)CCC(c2ccc(Cl)cc2)=C(CN2CCN(c3ccc(C(=O)NS(=O)(=O)c4ccc(N[C@H](CCN5CCOCC5)CSc5ccccc5)c(S(=O)(=O)C(F)(F)F)c4)cc3)CC2)C1",
    "classification": "active"
  },
  {
    "molecule": "C1=CCOCc2cc(ccc2OCCN2CCCC2)Nc2nccc(n2)-c2cccc(c2)OCC1",
    "classification": "active"
  },
  {
    "molecule": "O=C(C=Cc1c(C(=O)O)[nH]c2cc(Cl)cc(Cl)c12)Nc1ccccc1",
    "classification": "inactive"
  }
]

----------
# test.details: Quantitative High-Throughput drug screen in 47 multiple myeloma cell lines against the NCATS MIPE library collection: Karpas25_ECACC cell viability assay (AID 1918968; also: nearly all actives have a fitted effect of over 35% in size)
# setup.conditions: Karpas25 myeloma viability, CellTiter-Glo ATP, 48 h; series mostly up to 45.8 µM
Results filed as inconclusive are left out. The source made the active and inactive calls. Calls follow the shape of the dose curve; as a rule, active = well fitted cell-killing curve with a large enough effect; inconclusive = small, poorly fitted or top-dose-only effect, or effect the other way; inactive = no such curve, though single readings can be large or run the other way.
Classes used: y for active, n for inactive

[
  {
    "smiles.text": "COC(=O)Nc1ccc(-c2nc(N3CCOCC3)c3cnn(C4CCN(Cc5cccnc5)CC4)c3n2)cc1",
    "classification": "y"
  },
  {
    "smiles.text": "CC(=O)c1c(C)c2cnc(Nc3ccc(N4CCNCC4)cn3)nc2n(C2CCCC2)c1=O",
    "classification": "y"
  },
  {
    "smiles.text": "CC(C)c1nn(-c2c(Cl)cccc2Cl)c2nc(Cc3ccc(OCCO)cc3)[nH]c(=O)c12",
    "classification": "y"
  },
  {
    "smiles.text": "Cc1coc2c1C(=O)C(=O)c1c-2ccc2c1CCCC2(C)C",
    "classification": "y"
  },
  {
    "smiles.text": "COc1c(OCCCN2CCOCC2)ccc2c3n(c(=NC(=O)c4cnc(N)nc4)nc12)CCN3",
    "classification": "y"
  },
  {
    "smiles.text": "Clc1ccc2ncc(-c3cccc(NC4CNC4)n3)n2c1",
    "classification": "y"
  },
  {
    "smiles.text": "CCC[C@H](NC(=O)C(C#N)=Cc1cccc(Br)n1)c1ccccc1",
    "classification": "y"
  },
  {
    "smiles.text": "CNC(=O)c1cc(Oc2ccc(NC(=O)Nc3cc(C(C)(C)C)nn3-c3ccc4ncccc4c3)c(F)c2)ccn1",
    "classification": "y"
  },
  {
    "smiles.text": "Cc1c(CN2CCN(S(C)(=O)=O)CC2)sc2c(N3CCOCC3)nc(-c3cnc(N)nc3)nc12",
    "classification": "y"
  },
  {
    "smiles.text": "CC(C)Nc1cc(C(F)(F)F)cc2nc(NC(=O)c3cccnc3)nn12",
    "classification": "n"
  },
  {
    "smiles.text": "Cc1[nH]c2ccccc2c1CCNCc1ccc(C=CC(=O)NO)cc1",
    "classification": "y"
  },
  {
    "smiles.text": "CC1(C)OC2=C(C(=O)c3ccccc3C2=O)[C@H](NCc2ccccc2)[C@H]1O",
    "classification": "y"
  },
  {
    "smiles.text": "CN1CCC(CNc2ccc3ncc(-c4cccc(OC(F)(F)F)c4)n3n2)CC1",
    "classification": "y"
  },
  {
    "smiles.text": "CCCCN1CCC(CNC(=O)c2c3n(c4ccccc24)CCCO3)CC1",
    "classification": "y"
  },
  {
    "smiles.text": "Nc1nccc(Oc2ccc(NC(=O)c3c[nH]cc(-c4ccc(F)cc4)c3=O)cc2F)c1Cl",
    "classification": "y"
  },
  {
    "smiles.text": "Cc1cc(Nc2ncnc3ccc(-c4ccc(CNCCS(C)(=O)=O)o4)cc23)ccc1Oc1ccn2ncnc2c1",
    "classification": "y"
  },
  {
    "smiles.text": "CC(C)c1ccc(Cn2ccc3c4c(N)nc(NC5CC5)nc4ccc32)cc1",
    "classification": "y"
  },
  {
    "smiles.text": "CC(C)(C)c1cnc(CSc2cnc(NC(=O)C3CCNCC3)s2)o1",
    "classification": "y"
  },
  {
    "smiles.text": "C[C@@]12O[C@@H](C[C@]1(O)CO)n1c3ccccc3c3c4c(c5c6ccccc6n2c5c31)CNC4=O",
    "classification": "y"
  },
  {
    "smiles.text": "NC(=O)Nc1cc(-c2cccc(F)c2)sc1C(=O)N[C@H]1CCCNC1",
    "classification": "y"
  }
]
